Provenance of the data: ChEMBL document CHEMBL1143509

# Experimental target: Sodium channel protein type 9 subunit alpha (Homo sapiens)
# Protocol details: Inhibitory constant against voltage-gated sodium channel Nav1.7 in electrophysiology assays (EP)
pKi reference
Just so you know, pKi here is -log10 of the concentration in molar units; reply with that number alone.

Below are worked cases with known answers.
>  <Compound>
NS(=O)(=O)c1ccccc1-c1ccc(CNC(=O)c2ccccc2C(=O)NCc2ccc(-c3cccs3)s2)cc1

>  <Readout name>
pKi

>  <Test result>
6.85

$$$$
>  <Compound>
NS(=O)(=O)c1ccccc1-c1ccc(CNC(=O)CCC(=O)NCc2ccc(-c3cccs3)s2)cc1

>  <Readout name>
pKi

>  <Test result>
6.82

$$$$
>  <Compound>
NS(=O)(=O)c1ccccc1-c1ccc(CNC(=O)[C@H]2CCC[C@H]2C(=O)NCc2ccc(-c3cccs3)s2)cc1 (racemic)

>  <Readout name>
pKi

>  <Test result>
6.17

$$$$

Turning to the following compound.
Query pKi for COc1ccccc1-c1ccc(CNC(=O)[C@H]2CCC[C@@H]2C(=O)NCc2ccc(-c3ccccc3S(N)(=O)=O)cc2)cc1 (racemic)
6.16

---

IC50 reference
# Experimental target: Sodium channel protein type 9 subunit alpha (Homo sapiens, UniProt Q15858)
# Sequence (Q15858 whole entry): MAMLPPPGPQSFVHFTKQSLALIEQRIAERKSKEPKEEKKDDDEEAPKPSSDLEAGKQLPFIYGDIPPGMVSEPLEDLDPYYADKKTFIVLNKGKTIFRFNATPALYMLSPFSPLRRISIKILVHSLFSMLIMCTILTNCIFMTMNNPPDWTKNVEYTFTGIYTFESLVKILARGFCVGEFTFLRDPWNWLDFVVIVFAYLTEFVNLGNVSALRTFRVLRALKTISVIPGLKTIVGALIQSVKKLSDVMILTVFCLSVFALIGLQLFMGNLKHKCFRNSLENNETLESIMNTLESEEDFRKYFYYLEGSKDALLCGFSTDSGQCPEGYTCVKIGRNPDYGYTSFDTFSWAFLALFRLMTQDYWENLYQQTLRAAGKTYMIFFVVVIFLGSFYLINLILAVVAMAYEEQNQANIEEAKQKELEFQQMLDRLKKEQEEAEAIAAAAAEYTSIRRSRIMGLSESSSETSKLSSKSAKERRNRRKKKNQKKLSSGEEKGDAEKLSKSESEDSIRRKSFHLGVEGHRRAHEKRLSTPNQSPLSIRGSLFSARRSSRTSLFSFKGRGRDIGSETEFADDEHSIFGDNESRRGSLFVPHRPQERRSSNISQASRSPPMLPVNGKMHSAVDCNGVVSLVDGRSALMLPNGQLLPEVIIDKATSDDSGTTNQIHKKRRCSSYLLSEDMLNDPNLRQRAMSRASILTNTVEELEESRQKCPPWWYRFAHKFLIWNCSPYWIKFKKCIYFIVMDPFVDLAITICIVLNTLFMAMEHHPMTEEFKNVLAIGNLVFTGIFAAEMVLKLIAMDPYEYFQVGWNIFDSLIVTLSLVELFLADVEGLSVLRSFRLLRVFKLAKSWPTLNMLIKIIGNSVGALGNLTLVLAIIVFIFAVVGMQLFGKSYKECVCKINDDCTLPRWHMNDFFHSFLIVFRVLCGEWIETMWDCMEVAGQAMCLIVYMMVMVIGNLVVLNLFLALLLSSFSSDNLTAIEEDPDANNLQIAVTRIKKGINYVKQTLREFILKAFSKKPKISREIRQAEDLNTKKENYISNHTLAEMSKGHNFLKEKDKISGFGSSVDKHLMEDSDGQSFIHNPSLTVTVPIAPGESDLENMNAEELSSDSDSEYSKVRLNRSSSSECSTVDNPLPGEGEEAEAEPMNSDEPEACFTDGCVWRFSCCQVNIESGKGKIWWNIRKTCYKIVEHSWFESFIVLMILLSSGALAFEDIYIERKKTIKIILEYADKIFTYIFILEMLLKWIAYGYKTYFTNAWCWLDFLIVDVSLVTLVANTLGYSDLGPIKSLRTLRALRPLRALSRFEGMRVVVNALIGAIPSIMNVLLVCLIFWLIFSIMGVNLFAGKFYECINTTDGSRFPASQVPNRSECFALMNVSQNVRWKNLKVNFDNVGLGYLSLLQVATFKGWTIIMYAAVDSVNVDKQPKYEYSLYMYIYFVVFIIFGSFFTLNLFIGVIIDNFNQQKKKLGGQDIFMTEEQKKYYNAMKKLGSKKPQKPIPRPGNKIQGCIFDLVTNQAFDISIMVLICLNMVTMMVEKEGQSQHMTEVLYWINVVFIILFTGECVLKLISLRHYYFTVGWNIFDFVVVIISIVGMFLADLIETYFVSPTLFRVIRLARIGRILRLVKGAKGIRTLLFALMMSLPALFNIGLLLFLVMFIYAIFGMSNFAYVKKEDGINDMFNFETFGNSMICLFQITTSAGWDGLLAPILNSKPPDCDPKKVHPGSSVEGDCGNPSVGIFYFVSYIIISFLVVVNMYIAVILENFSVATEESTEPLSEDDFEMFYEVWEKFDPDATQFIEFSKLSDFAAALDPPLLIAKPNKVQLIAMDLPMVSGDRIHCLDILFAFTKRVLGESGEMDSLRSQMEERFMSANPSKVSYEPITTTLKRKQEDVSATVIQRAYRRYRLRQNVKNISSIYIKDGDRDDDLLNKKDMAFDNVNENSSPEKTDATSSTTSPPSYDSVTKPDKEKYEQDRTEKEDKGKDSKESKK
# Protocol details: In vitro inhibitory concentration against voltage-gated sodium channel Nav1.7 in voltage-ion-probe-reader (VIPR) assay
Write the number in nM without appending the unit.

Below are worked cases with known answers.
>  <Compound>
CN(Cc1ccc(-c2ccccc2S(N)(=O)=O)cc1)C(=O)[C@H]1CCC[C@@H]1C(=O)NCc1ccc(OC(F)(F)F)cc1 (racemic)

>  <Experimental target>
Sodium channel protein type 9 subunit alpha (Homo sapiens, UniProt Q15858)

>  <Readout name>
IC50

>  <Result units>
nM

>  <Test result>
830

$$$$
>  <Compound>
COc1ccccc1-c1ccc(CNC(=O)[C@H]2CCC[C@@H]2C(=O)NCc2ccc(-c3ccccc3S(N)(=O)=O)cc2)cc1 (racemic)

>  <Experimental target>
Sodium channel protein type 9 subunit alpha (Homo sapiens, UniProt Q15858)

>  <Readout name>
IC50

>  <Result units>
nM

>  <Test result>
660

$$$$
>  <Compound>
CC(NC(=O)[C@H]1CCC[C@@H]1C(=O)NCc1ccc(-c2cccs2)s1)c1ccc(-c2ccccc2S(N)(=O)=O)cc1 (mixture of isomers)

>  <Experimental target>
Sodium channel protein type 9 subunit alpha (Homo sapiens, UniProt Q15858)

>  <Readout name>
IC50

>  <Result units>
nM

>  <Test result>
1400

$$$$

Query IC50 for C=C1[C@H](C(=O)NCc2ccc(-c3ccccc3S(N)(=O)=O)cc2)[C@H]1C(=O)NCc1ccc(-c2cccs2)s1 (racemic)
840

Query IC50 for NS(=O)(=O)c1ccccc1-c1ccc(CNC(=O)[C@H]2CCCC[C@@H]2C(=O)NCc2ccc(-c3cccs3)s2)cc1 (racemic)
1400
